target: BRM (Homo sapiens); assay: ATPase catalytic activity assay of BRM (ADP-Glo); assay type: biochemical
Sequence (P51531 whole entry): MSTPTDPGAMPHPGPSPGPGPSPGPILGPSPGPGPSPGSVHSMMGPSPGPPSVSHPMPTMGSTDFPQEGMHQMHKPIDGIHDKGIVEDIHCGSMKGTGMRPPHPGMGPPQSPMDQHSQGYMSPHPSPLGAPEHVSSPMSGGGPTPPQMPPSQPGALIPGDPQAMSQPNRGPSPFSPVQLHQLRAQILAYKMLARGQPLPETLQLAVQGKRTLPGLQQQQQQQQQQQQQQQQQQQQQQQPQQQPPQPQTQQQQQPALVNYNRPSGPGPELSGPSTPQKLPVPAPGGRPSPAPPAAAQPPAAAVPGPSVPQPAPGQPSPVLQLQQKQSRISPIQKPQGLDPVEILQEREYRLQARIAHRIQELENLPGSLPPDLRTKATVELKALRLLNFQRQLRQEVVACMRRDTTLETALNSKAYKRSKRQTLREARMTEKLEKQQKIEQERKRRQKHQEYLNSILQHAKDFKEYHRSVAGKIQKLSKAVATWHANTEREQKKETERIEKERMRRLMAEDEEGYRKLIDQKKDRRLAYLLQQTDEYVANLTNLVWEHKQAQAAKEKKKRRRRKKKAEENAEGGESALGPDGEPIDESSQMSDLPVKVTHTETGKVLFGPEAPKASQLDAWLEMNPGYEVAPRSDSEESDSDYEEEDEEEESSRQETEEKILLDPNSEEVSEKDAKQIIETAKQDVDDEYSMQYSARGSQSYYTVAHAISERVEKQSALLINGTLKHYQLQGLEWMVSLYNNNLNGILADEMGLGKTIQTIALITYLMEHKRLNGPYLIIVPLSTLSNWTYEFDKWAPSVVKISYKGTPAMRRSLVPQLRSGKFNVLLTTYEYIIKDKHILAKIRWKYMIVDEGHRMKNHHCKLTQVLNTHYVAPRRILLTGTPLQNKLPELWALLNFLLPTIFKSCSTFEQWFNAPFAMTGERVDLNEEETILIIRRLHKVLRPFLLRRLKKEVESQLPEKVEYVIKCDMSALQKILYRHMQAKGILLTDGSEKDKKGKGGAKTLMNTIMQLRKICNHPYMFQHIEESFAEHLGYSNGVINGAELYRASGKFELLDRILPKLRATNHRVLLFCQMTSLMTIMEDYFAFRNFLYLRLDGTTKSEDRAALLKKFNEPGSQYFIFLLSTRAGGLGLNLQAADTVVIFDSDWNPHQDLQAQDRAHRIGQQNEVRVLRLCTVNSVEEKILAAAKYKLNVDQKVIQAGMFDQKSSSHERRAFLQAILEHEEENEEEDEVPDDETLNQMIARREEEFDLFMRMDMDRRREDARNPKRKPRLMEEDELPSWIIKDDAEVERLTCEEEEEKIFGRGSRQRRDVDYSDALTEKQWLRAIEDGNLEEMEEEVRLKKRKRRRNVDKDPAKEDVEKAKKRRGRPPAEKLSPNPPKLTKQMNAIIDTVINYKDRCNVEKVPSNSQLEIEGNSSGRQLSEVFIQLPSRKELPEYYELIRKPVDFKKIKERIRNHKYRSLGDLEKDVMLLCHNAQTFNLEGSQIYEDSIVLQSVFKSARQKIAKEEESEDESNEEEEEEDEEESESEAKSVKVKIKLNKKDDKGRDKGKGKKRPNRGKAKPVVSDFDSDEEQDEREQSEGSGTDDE
property.name: BRM Max % Inhibition

Data point: "C[C@@]1(C#N)COCc2ccc(C(=O)NCC(=O)Nc3nc(-c4cccc([C@]56CCOC[C@H]5C6)c4)cs3)cc21" ; BRM Max % Inhibition = >95%

Data point: "C[C@@]1(C#N)COCc2ccc(C(=O)NCC(=O)Nc3nc(-c4cccc(F)c4)cs3)cc21" ; BRM Max % Inhibition = >95%

Data point: "Cc1cc(-c2cccc(-c3csc(NC(=O)CNC(=O)c4ccc(C)c(C(C)(C)CN)c4)n3)c2)cc(C)n1" ; BRM Max % Inhibition = >95%

Data point: "C[C@@H]1CN(c2cccc(-c3csc(NC(=O)CNC(=O)c4cccc([C@]5(C)C[C@H](O)C5)c4)n3)c2)C[C@H](C)O1" ; BRM Max % Inhibition = >95%

Data point: "C[C@@H]1CN(c2cccc(-c3csc(NC(=O)CNC(=O)c4cccc([C@]5(F)C[C@@H](F)C5)c4)n3)n2)C[C@H](C)O1" ; BRM Max % Inhibition = >90%

Data point: "C[C@@]1(C#N)COCc2ccc(C(=O)NCC(=O)Nc3nc(-c4cccc([C@@]56CCOC[C@@H]5C6)c4)cs3)cc21" ; BRM Max % Inhibition = >95%

Data point: "C[C@@H]1CN(c2cccc(-c3csc(NC(=O)CNC(=O)c4ccc5c(c4)[C@](C)(CO)CCO5)n3)c2)C[C@H](C)O1" ; BRM Max % Inhibition = >90%

Data point: "Cn1cnc2ccc(-c3csc(NC(=O)CNC(=O)c4ccc5c(c4)[C@](C)(CO)CC5)n3)cc21" ; BRM Max % Inhibition = >90%

Data point: "CC(C)(CO)c1cccc(C(=O)NCC(=O)Nc2nc(-c3cccc(C#N)c3)cs2)c1" ; BRM Max % Inhibition = >80%

Data point: "C[C@@H]1CN(c2cccc(-c3csc(NC(=O)CNC(=O)c4ccc5c(c4)S(=O)(=O)CCCC5)n3)c2)C[C@H](C)O1" ; BRM Max % Inhibition = >95%
